# measurement_description: chemical genetic growth profiling, strain panel (AID 1159580);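 further: tested at 20 µM; growth read once vehicle control cultures reached saturation at 30 °C; 1 = growth at the plate median or of vehicle wells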
# condition_set: S. cerevisiae deletion strains, growth OD, locus YIL147C, strain SLN1, stronger effect = lower value
Hit rate of the full screen: of about 5,500 compounds, about 2,000 (36%) were called active. About 18% were inconclusive and are not listed. Some of the results follow.
Listed here are compounds together with their documented normalized growth.
endpoint: normalized growth

compound	endpoint	reported
Cc1c(C(=O)Sc2ccc(F)cc2F)sc2nc(C(F)(F)F)nn12	normalized growth	0.488
COc1cc(Cl)ccc1N/N=C(/C#N)C(N)=O	normalized growth	0.107
C/C(Cc1nnn(-c2cc(C)on2)n1)=N/OC(=O)Nc1ccc(Cl)cc1	normalized growth	0.973
O=[N+]([O-])c1ccc(ON=C2CCCCC2)c([N+](=O)[O-])c1	normalized growth	0.984
CCCN(CCC)C(=S)NC(=O)c1cccc([N+](=O)[O-])c1	normalized growth	0.97
N/C(CCSc1ccc(Cl)cc1)=N/OC(=O)Nc1ccc(Cl)cc1	normalized growth	0.986
Cc1cc(C(=O)NNS(=O)(=O)c2ccc(F)c(Cl)c2)nn1-c1c(Cl)cc(Cl)cc1Cl	normalized growth	0.99
N/C(Cn1ccc(C(F)(F)F)n1)=N/OS(=O)(=O)c1cccc(Cl)c1Cl	normalized growth	0.987
N#C/C(=N/Nc1ccc(F)cc1)C(=O)c1ccccc1	normalized growth	0.842
O=C(ON=C1CCCCC1)c1ccc([N+](=O)[O-])cc1	normalized growth	0.946
Cc1ccc(Nc2ccnc3cc(Cl)ccc23)cc1F	normalized growth	0.992
N#C/C(=N/Nc1ccc(F)cc1)S(=O)(=O)c1ccc(Cl)cc1	normalized growth	0.976
Cc1nn(C)c(C(=O)Sc2ccc(OC(F)(F)F)cc2)c1[N+](=O)[O-]	normalized growth	0.985
COc1cccc(C2CCN(C(=O)c3cccc4ccccc34)CC2)c1	normalized growth	0.987
CCOC(=O)C1C(c2c(F)cccc2Cl)C(C(=O)OCC)C(O)(C(F)(F)F)NC1(O)C(F)(F)F (stereo not drawn)	normalized growth	0.987
CC(=O)/C(C#N)=N\Nc1ccc(F)cc1	normalized growth	0.585
CC(C)(C)c1ccc(C(=N)SC(C(=O)C(F)(F)F)c2ccccc2)cc1 (stereo not drawn)	normalized growth	0.992
CC(C)(C)c1ccc(N/N=C(\C#N)C(N)=O)cc1	normalized growth	0.107

====

# measurement_description: chemical genetic growth profiling, strain panel (AID 1159580)
# condition_set: S. cerevisiae deletion strains, growth OD, locus YKL067W, strain YNK1
Among all 5,500 compounds or so, about 2,000 (36%) were called active. Not shown: some 18% with an inconclusive outcome. No stated cut-off is given here; in the data, active means normalized growth mostly below about 0.91 (no sharp cut-off); inconclusive means no clear call, values can overlap the other calls; inactive means mostly above about 0.92. This is one part of the list.
Outcome codes: Yes = active, No = inactive

compound	classification
N/C(Cn1ccc(C(F)(F)F)n1)=N/OS(=O)(=O)c1cccc(Cl)c1Cl	No
Cc1cc(C(=O)NNS(=O)(=O)c2ccc(F)c(Cl)c2)nn1-c1c(Cl)cc(Cl)cc1Cl	No
Cc1cccc(NC(=S)N/N=C\c2ccc(F)cc2)c1	No
N#C/C(=N/Nc1ccc(F)cc1)C(=O)c1ccccc1	No
N#C/C(=N/Nc1ccc(F)cc1)S(=O)(=O)c1ccc(Cl)cc1	No
N#C/C(=N/Nc1ccccc1)C(=O)c1ccccc1OC(F)(F)F	No
O=C(NCc1ccc(Cl)c(Cl)c1)c1cccnc1OCC(F)(F)F	No
O=C(ON=C1CCCCC1)c1ccc([N+](=O)[O-])cc1	No
Oc1c(Cl)cc(Cl)cc1C=Nc1nc(-c2ccc3ccccc3c2)cs1	No
CC(=O)/C(C#N)=N\Nc1ccc(F)cc1	Yes
CCOC(=O)C1C(c2c(F)cccc2Cl)C(C(=O)OCC)C(O)(C(F)(F)F)NC1(O)C(F)(F)F (stereo unspecified)	No

====

# measurement_description: chemical genetic growth profiling, strain panel (AID 1159580);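 further: tested at 20 µM; growth read once vehicle control cultures reached saturation at 30 °C; 1 = growth at the plate median or of vehicle wells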
# condition_set: S. cerevisiae deletion strains, growth OD, locus YOR231W, strain MKK1, stronger effect = lower value
In all, about 5,500 compounds went through this assay and about 2,000 (36%) were called active. Not shown: some 18% with an inconclusive outcome. The list shows a part of the results.
Strictly below 1 in normalized growth: criterion met. Otherwise: criterion not met.

molecule	classification
C/C(Cc1nnn(-c2cc(C)on2)n1)=N/OC(=O)Nc1ccc(Cl)cc1	criterion met
COc1ccc2c(c1)OC1(O)COc3cc(OC)c(OC)cc3C1=C2 (stereo not drawn)	criterion met
Cc1c(C(=O)Sc2ccc(F)cc2F)sc2nc(C(F)(F)F)nn12	criterion met
N#C/C(=N/Nc1ccc(F)cc1)C(=O)c1ccccc1	criterion met
C[C@]12CCC(=O)C=C1C=CC1C2CC[C@@]2(C)C1CC[C@@]2(O)CCC(=O)O (stereo partly drawn)	criterion not met

====

# measurement_description: chemical genetic growth profiling, strain panel (AID 1159580);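 further: tested at 20 µM; growth read once vehicle control cultures reached saturation at 30 °C; 1 = growth at the plate median or of vehicle wells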
# condition_set: S. cerevisiae deletion strains, growth OD, locus YPL240C, strain hsp82, stronger effect = lower value
The campaign covered roughly 5,500 compounds. About 2,000 (36%) were called active. About 18% were inconclusive and are not listed. The list shows a part of the results.
endpoint: normalized growth

compound	reported
CO/N=C1/CN(c2nc3c(cc2F)c(=O)c(C(=O)O)cn3C2CC2)CC1CN (stereo unspecified)	1.02
Clc1ccc(C(c2ccc(Cl)cc2)C(Cl)(Cl)Cl)cc1	0.999
O=C1CCC(N2C(=O)c3ccccc3C2=O)C(=O)N1 (stereo unspecified)	1.02
COC(=O)c1cc(=O)c(O)c2c(O)c(O)ccc2c1	0.978
C#CCCCCCCCCCCCc1ccco1	1
CC1COc2c(N3CCN(C)CC3)c(F)cc3c(=O)c(C(=O)O)cn1c23 (stereo unspecified)	0.999
COc1ccc(C(CN(C)C)C2(O)CCCCC2)cc1 (stereo unspecified)	0.996
COc1ccc2c(c1)OC1(O)COc3cc(OC)c(OC)cc3C1=C2 (stereo unspecified)	0.988
C[C@H]1COc2c(N3CCN(C)CC3)c(F)cc3c(=O)c(C(=O)O)cn1c23	1.01
COc1ccc2c(c1)OC/C(=C\c1ccc(OC)c(O)c1)C2=O	0.929
CCOC(=O)n1ccn(C)c1=S	0.994
Nc1ncn[nH]1	1.02
COc1ccc(C(c2ccc(OC)cc2)C(Cl)(Cl)Cl)cc1	1.01
COC(=O)/C=C/C(C)=C/C=C/C(C)=C/C=C/C=C(C)/C=C/C=C(C)/C=C/C(=O)O	1.03
C=C[C@@](C)(O)CCC1C(=C)C[C@H](OC(C)=O)C2C(C)(C)CCCC12C (stereo partly specified)	1.02
C=CCCCCCCCCCCCc1ccco1	0.847
O=C(Oc1cc(O)cc2c1C[C@@H](OC(=O)c1cc(O)c(O)c(O)c1)[C@@H](c1cc(O)c(O)c(O)c1)O2)c1cc(O)c(O)c(O)c1	1.01
O=C(Oc1cc(OC(=O)c2ccccc2)c2c(c1)O[C@H](c1ccc(OC(=O)c3ccccc3)c(OC(=O)c3ccccc3)c1)[C@@H](OC(=O)c1ccccc1)C2)c1ccccc1	0.99
CC(=O)Oc1cc(OC(C)=O)c2c(c1)O[C@H](c1ccc(OC(C)=O)c(OC(C)=O)c1)[C@H](OC(C)=O)C2	0.99
CCCc1cc(C(N)=S)ccn1	0.976
CC(=O)Oc1cc(OC(C)=O)c2c(c1)O[C@H](c1ccc(OC(C)=O)c(OC(C)=O)c1)[C@@H](OC(C)=O)C2	0.992

====

Listed here are compounds together with their documented normalized growth.
# measurement_description: chemical genetic growth profiling, strain panel (AID 1159580);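 further: tested at 20 µM; growth read once vehicle control cultures reached saturation at 30 °C; 1 = growth at the plate median or of vehicle wells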
# condition_set: S. cerevisiae deletion strains, growth OD, locus YDL040C, strain nat1, stronger effect = lower value
In all, about 5,500 compounds went through this assay and about 2,000 (36%) were called active. Another 18% or so got no clear call; they are omitted. Some of the results follow.
endpoint: normalized growth

compound	endpoint	reported
COc1c(N2CCNC(C)C2)c(F)cc2c(=O)c(C(=O)O)cn(C3CC3)c12 (configuration not stated)	normalized growth	0.984
O=C(NC(=O)c1ccccc1Cl)Nc1ccc(OC(F)(F)F)cc1	normalized growth	1.03
C=C[C@@](C)(O)CCC1C(=C)C[C@H](O)C2C(C)(C)CCCC12C (some centres not stated)	normalized growth	0.997
OCCc1ccccc1	normalized growth	0.999
N[C@@H](Cc1ccc(N(CCCl)CCCl)cc1)C(=O)O	normalized growth	0.985
C=C1CCC2[C@](C)(CO)[C@H](O)CC[C@@]2(C)[C@@H]1C/C=C1/C(=O)OC[C@H]1O (some centres not stated)	normalized growth	0.995
O=C(O)CCCc1ccccc1	normalized growth	0.989
COc1ccc(C(=O)O)cc1OC	normalized growth	0.997
C=CCc1ccc(OC)cc1	normalized growth	0.999
N=c1ccn2c(n1)OC1C(O)C(CO)OC12 (configuration not stated)	normalized growth	0.986
C[C@H]1COc2c(N3CCN(C)CC3)c(F)cc3c(=O)c(C(=O)O)cn1c23	normalized growth	1.02
CCCCCCCCCCC[C@@H](C[C@H]1OC(=O)[C@H]1CCCCCC)OC(=O)[C@@H](CC(C)C)NC=O	normalized growth	1
